Ref: paper PMC7755911

target: Biotinylated SARS-CoV-2 S protein RBD with a C-terminal AviTag (SARS-CoV-2, UniProt P0DTC2 319-541); assay: BLI
So I've got a bunch of binders here, and I need their koff values.
// return numeric value only (unit: s⁻¹, not printed)

Suppose we examine the binder NIH-CoVnb-108 (VHH) VHH: DVQLQESGGGLVQPGGSLRLSCAASGFTLDYYAIGWFRQAPGKEREGVSCISNSGGSTYYADSVKGRFTTSRDNAKNTVYLQMNSLKPEDTAVYYCAAVPSTYYSGSYYYTCHPGGMDYWGKGTQVTVSS ; what koff value has been reported?
0.00109

Suppose we examine the binder NIH-CoVnb-103 (VHH) VHH: DVQLQESGGGLVQPGGSLRLSCAASGLTLDYYTIGWFRQAPGKEREGVSCISSSDDSTYYADSVKGRFTISRDNAKNTVYLQMNSLKPEDTAVYYCATAPGTYYKGSYYPMCHYYGMDYWGKGTQVTVSS ; what koff value has been reported?
0.00286

Suppose we examine the binder NIH-CoVnb-113 (VHH) VHH: DVQLQESGGGLVQPGGSLRLSCAASGLTLDYYAIGWFRQAPGKEREGVSCISSSDGSTYYADSVKGRFTTSRDNAKNTVYLQMNSLKPEDTAVYYCAAVPSTYYSGTYYYTCHPGGMDYWGKGTLVTVSS ; what koff value has been reported?
0.000804

Suppose we examine the binder NIH-CoVnb-109 (VHH) VHH: DVQLQESGGGLVQSGGSLRLSCAASGFTLDYYAIGWFRQAPGKEREGVSCITNSDGSTYYADSVKGRFTTSRDNAKNTVYLQMNSLKPEDTAVYYCASFPSTYYSGSYYYTCHPGGMDYWGKGTQVTVSS ; what koff value has been reported?
0.00188
